Attribution: PubChem BioAssay AID743093

Listed compounds paired with reported inhibition
- assay.summary: late stage P. falciparum gametocyte viability inhibitors, primary screen, ATP luminescence, HTS (AID 743093);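 note: 0% = DMSO wells and 100% = medium only without gametocytes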
- experimental.context: P. falciparum stage V gametocytes, 24 h, at 10.9 µM, hits give high values
About 100 (0.067%) of roughly 150,000 compounds were called active. Only a selection was taken, and actives are over-represented in it overall.

- compound: "COc1ccc(CNC(=O)C2CCCC2)cc1"
  inhibition (%): -3.19
- compound: "COc1ccc(NC(=O)c2cc(-c3ccc(C)cc3)on2)cc1"
  inhibition (%): -2.96
- compound: "O=C(Nc1nnc(CCN2CCCCC2)s1)c1cccc(Cl)c1"
  inhibition (%): 7.08
- compound: "CC(=O)NS(=O)(=O)c1ccc2c(c1)Cc1cc(S(=O)(=O)NC(C)=O)ccc1-2"
  inhibition (%): -9.24
- compound: "CCOC(=O)c1sc(/N=C/C2=C(O)CC(C)(C)CC2=O)c(C(=O)OCC)c1C"
  inhibition (%): 22.4
- compound: "CCCCC(CC)CNCc1cccn1CCN1CCOCC1 (stereo unspecified)"
  inhibition (%): -25.6
- compound: "Cc1cc(F)ccc1NC(=O)C(C)n1c2ccccc2c2nc(=O)cc(C)n21 (stereo unspecified)"
  inhibition (%): -11.9
- compound: "COc1cc2c(cc1OC)C(C(=O)Nc1cc(C)c(OC)c(C)c1)CC(=O)N2 (stereo unspecified)"
  inhibition (%): 5.54
- compound: "COC(=O)C1(CCSC)NC(c2ccc(OC)cc2OC)C2C(=O)N(c3cccc(C(C)=O)c3)C(=O)C21 (stereo unspecified)"
  inhibition (%): 15.8
- compound: "CC(=O)NCC(=O)NC1CCCc2c1cnn2-c1ccccc1F (stereo unspecified)"
  inhibition (%): -0.98
- compound: "Nc1nnnn1/N=C/c1cc([N+](=O)[O-])ccc1O"
  inhibition (%): -1.33
